Exercise: for every item that follows, state its recorded growth.
Tested on: CAKI-1 renal
Assay: NCI-60 one-dose screen, 48 h (100 = growth as untreated, 0 = no growth, -100 = all killed)
Conditions: 10 µM unless noted
The panel holds about 83,000 compounds, 20% with a hit somewhere; the sample as a whole holds those more often.
Numbers only, in %.

Study these solved cases before continuing.
> print(dat)
                      smiles.representation  test.value
1  COCCn1cc(-c2nc(-c3cc4cccnc4n3CCOC)cs2)c2cc(OC)ccc21        70.4
2  Cc1ccccc1NC(=O)c1sc2nc(C)c(C(=O)/C=C/c3ccccc3)cc2c1N        25.5
3  Cn1c(O)c(C=NCCN=Cc2c(O)n(C)c(=O)n(C)c2=O)c(=O)n(C)c1=O        94.4
4  O=C1c2cccnc2C(=O)c2c1c(C(=O)NCCn1ccnc1)c1ccccn21        86.9

Below are 5 compounds. Give each one its growth.
1. COc1ccc2cc(-c3ccc(NC(C)=O)c(=O)o3)ccc2c1
2. CCn1c(SCC(=O)c2ccc(Br)cc2)nnc1-c1ccncc1
3. Cn1ccnc1C(=O)C(=O)Nc1ccc(CC(=O)Nc2ccccc2)cc1
4. C=C(C)[C@@H]1CC[C@]2(C(=O)NCC#CCN3CCN(C)CC3)CC[C@]3(C)[C@H](CC[C@@H]4[C@@](C)(CCC#N)[C@H](C(=C)C)CC[C@]43C)[C@@H]12
5. Clc1ccc(Sc2cnc(-c3ccccc3)o2)cc1

1: 89.7; 2: 95.6; 3: 93.3; 4: 57.7; 5: 90.2

Log: CAKI-1 renal, compound "O=C(c1ccc(-c2nc(CSc3nc4ccccc4s3)no2)cc1)N1CCSCC1" , growth = 63.5

###

Please provide measured growth for the entries that follow.
Tested on: HCT-116 colon
Experiment: NCI-60 one-dose screen, 48 h (100 = growth as untreated, 0 = no growth, -100 = all killed)
Conditions: 10 µM unless noted
The panel holds about 83,000 compounds, 20% with a hit somewhere; the sample as a whole holds those more often.
One number for each entry, in %.

These solved cases illustrate the format of a correct answer.
> print(dat)
                                   compound  test.value
1  COc1ccc(/C=N/C2=C(C#N)C(c3cccc(Cl)c3)c3c(ccc4ccccc34)O2)cc1 (stereo not given)        21.8
2  S=C(Nc1ccc(-c2nc(N3CCOCC3)c3cccn3n2)cc1)Nc1cccnc1        17.3
3  O=C(c1ccc(Cl)cc1)N1CCN(c2ccnc3cc(Cl)ccc23)CC1        81.5
4  COc1cc(-c2csc(NC(=O)c3cc(-n4cnc(C)c4)cc(C(F)(F)F)c3)n2)cc(OC)c1OC        40.4

Proceed to the following item.
compound "COc1cc(CNC(=O)/C=C/C=C/c2ccc3c(c2)OCO3)ccc1OCc1cn(-c2ccc(C)c(C)c2)nn1" , growth observed: 75.2

###

System: T-47D breast
Test: NCI-60 one-dose screen, 48 h
Conditions: 10 µM unless noted
Compounds without any hit were thinned out: in the full panel of roughly 83,000, 20% have a hit. Active and inactive are the calls of the source. Rule for the calls: active = growth percent below 10; inactive = the rest.
Allowed answers: active, inactive

Completed entries (count: 4):
> print(dat)
                      smiles.representation       cat
1  COc1ccc(OC)c(-c2c(C#N)c(-c3cccs3)nc3c2c(-c2ccccc2)nn3-c2ccccc2)c1  inactive
2  N#Cc1c(-c2ccc(Cl)cc2)nc(NN=Cc2cccc(O)c2)nc1N1CCOCC1  inactive
3  O=C1NC(=O)c2c1c1c3ccccc3ccc1c1[nH]c3ccc(Br)cc3c21    active
4  COc1ccc(C2=Nc3c/c(=C\c4c(O)[nH]c5ccc(Cl)cc45)ccc3=N2)cc1  inactive

Returns: the outcome recorded for "CCc1nc2c(=O)[nH]cnc2o1" in this assay.
inactive

###

Tested on: SNB-19 CNS
Test: NCI-60 one-dose screen, 48 h
Conditions: 10 µM unless noted
The panel holds about 83,000 compounds, 20% with a hit somewhere; the sample as a whole holds those more often. Activity calls are given as the source filed them. The calls were made as follows: active = growth percent below 10; inactive = the rest.
The categories you may choose from are T = active, F = inactive

> print(dat)
                                   compound  experimental.system  cat
1  COc1cc2c(c(OC)c1OC)CCC(c1cccc(C(=O)Nc3cccc(Br)c3)c1)O2 (stereo not given)           SNB-19 CNS    F
2  O=C(Nn1c2c(sc1=Nc1ccccc1)C(=O)c1ccccc1C2=O)c1cc2ccc1CCc1ccc(cc1)CC2           SNB-19 CNS    F
3                  CC(=O)c1cc(O)c2ccccc2c1O           SNB-19 CNS    F

Which outcome was entered for the compound CCO/C=N/C1=C(C#N)C(c2ccc(OC)cc2)c2sc3c(F)cccc3c2O1 (stereo not given) in this test?
F

Per the assay record, what outcome was assigned to "O=C1/C(=C/c2ccc(F)cc2)COc2ccc(O)cc21" ?
F

Please state the recorded outcome for this compound: "Cc1nnc(-n2c(O)cc(=O)n(-c3ccccc3)c2=S)nc1/C=C/c1ccc(N(C)C)cc1"
F

Write down the call the test reported for this compound. Item: "CN(C)c1ccc(Nc2cc(-c3cccc(OC(F)(F)F)c3)nc3ccc(N4CCCC4)cc23)cc1"
F

Entry "COc1ccc2nc(NC(=O)CSc3nnc4n3S(=O)(=O)c3ccccc3N4C)sc2c1" : call = ?
F

Hi, do you know how "O=C1/C(=C/c2ccc(F)cc2)COc2ccc(O)c(O)c21" came out in this test?
F

Query: recorded result category for "N#Cc1c(-c2cccs2)cc(-c2cccnc2)[nH]c1=O" in this test
F

###

Tested on: CCRF-CEM leukemia
Test: NCI-60 one-dose screen, 48 h (100 = growth as untreated, 0 = no growth, -100 = all killed)
Settings: 10 µM unless noted
About 83,000 compounds went through this panel and 20% of them were active in at least one assay; those are over-represented in the sample as a whole.
result-type: growth (%)
One number for each entry, in %.

The following compounds have reported results that may help.
> print(dat)
                                   compound  test.value
1  N#C/C(=C\c1ccc(-c2ccc(Cl)cc2)o1)C(=O)Nc1ncc(Cc2ccc(Cl)cc2)s1        41.4
2  O=C(Nc1ncc(Cc2ccc(Cl)c(C(F)(F)F)c2)s1)c1ccc2nnsc2c1        45.5
3  O=C(Cc1ccccc1)Nc1nc(O)c(/C=C2\C(=O)C=Cc3ccccc32)s1         114

Dear colleague, could you please provide growth for the compounds listed below?
1. CC(=O)n1nc(C(=O)OC(C)C)c2cc(C)c(C)cc21
2. COc1ccc(C2c3sc4c(F)cccc4c3Oc3nc[nH]c(=O)c32)cc1 (centres undefined)
3. Cc1cccnc1NC(=S)Nc1ncccc1C
4. Nc1ncnc2c1N=C(c1ccc3c(c1)OCO3)CC(c1ccc([N+](=O)[O-])cc1)N2 (centres undefined)

[84.7, 85.3, 91.4, 39.3]

Give one value of growth per listed compound.
1. CC1(C)CC2=C3C=C[C@@H]4[C@@]5(C)CCC(=O)C(C)(C)[C@@H]5CC[C@@]4(C)[C@]3(C)CC[C@@]2(C(=O)O)CC1=O
2. COc1cccc(NC(=O)Cn2cc(CN3CCN(c4ccnc5cc(Cl)ccc45)CC3)nn2)c1

1: 58; 2: -45.1

Each compound below has a recorded value; state its growth.
1. COc1ccc(/C=C2\COc3ccc(O)cc3C2=O)c(OC)c1OC
2. CCSc1nc(NC)c2cc(-c3ccc(C(F)(F)F)cc3)ccc2n1
3. O=C(OCc1ccc2cccc(O)c2n1)N1CCN(C(=O)c2cc3cc(F)ccc3[nH]2)CC1
4. C=C(C)[C@@H]1CC[C@]2(C(=O)NCC#CCN3CCN(C)CC3)CC[C@]3(C)[C@H](CC[C@@H]4[C@@](C)(CCC#N)[C@H](C(=C)C)CC[C@]43C)[C@@H]12
5. c1cnc2[nH]cc(-c3csc(-c4cn(CCCN5CCOCC5)c5ccccc45)n3)c2c1
6. CCc1nc2c(=O)[nH]cnc2o1

[8.08, 95.6, 3.76, 51.3, 17.4, 108]

I need growth for every entry listed below, if you could help.
1. O=c1oc2ccccc2cc1C1=NN=C(SCc2ccccc2)SC1
2. CC12CCC3c4ccccc4CCC3(CO1)C2 (centres undefined)

1: 95.3; 2: 86.9

For each listed entry, give its growth.
1. CCCCN[C@H]1CC[C@@]2(C)[C@@H](CC[C@@]3(C)[C@H]2[C@H](O)C[C@H]2/C(=C(\CCC=C(C)C)C(=O)OC)[C@@H](OC(C)=O)C[C@@]23C)[C@@H]1C
2. O=S(=O)(NCCNc1nccc(-c2c(-c3cccc(F)c3)nc3occn23)n1)c1ccc(Br)cc1

[41.3, 60.3]
